Study target: BRM (Homo sapiens, UniProt P51531)
Sequence (P51531 whole entry): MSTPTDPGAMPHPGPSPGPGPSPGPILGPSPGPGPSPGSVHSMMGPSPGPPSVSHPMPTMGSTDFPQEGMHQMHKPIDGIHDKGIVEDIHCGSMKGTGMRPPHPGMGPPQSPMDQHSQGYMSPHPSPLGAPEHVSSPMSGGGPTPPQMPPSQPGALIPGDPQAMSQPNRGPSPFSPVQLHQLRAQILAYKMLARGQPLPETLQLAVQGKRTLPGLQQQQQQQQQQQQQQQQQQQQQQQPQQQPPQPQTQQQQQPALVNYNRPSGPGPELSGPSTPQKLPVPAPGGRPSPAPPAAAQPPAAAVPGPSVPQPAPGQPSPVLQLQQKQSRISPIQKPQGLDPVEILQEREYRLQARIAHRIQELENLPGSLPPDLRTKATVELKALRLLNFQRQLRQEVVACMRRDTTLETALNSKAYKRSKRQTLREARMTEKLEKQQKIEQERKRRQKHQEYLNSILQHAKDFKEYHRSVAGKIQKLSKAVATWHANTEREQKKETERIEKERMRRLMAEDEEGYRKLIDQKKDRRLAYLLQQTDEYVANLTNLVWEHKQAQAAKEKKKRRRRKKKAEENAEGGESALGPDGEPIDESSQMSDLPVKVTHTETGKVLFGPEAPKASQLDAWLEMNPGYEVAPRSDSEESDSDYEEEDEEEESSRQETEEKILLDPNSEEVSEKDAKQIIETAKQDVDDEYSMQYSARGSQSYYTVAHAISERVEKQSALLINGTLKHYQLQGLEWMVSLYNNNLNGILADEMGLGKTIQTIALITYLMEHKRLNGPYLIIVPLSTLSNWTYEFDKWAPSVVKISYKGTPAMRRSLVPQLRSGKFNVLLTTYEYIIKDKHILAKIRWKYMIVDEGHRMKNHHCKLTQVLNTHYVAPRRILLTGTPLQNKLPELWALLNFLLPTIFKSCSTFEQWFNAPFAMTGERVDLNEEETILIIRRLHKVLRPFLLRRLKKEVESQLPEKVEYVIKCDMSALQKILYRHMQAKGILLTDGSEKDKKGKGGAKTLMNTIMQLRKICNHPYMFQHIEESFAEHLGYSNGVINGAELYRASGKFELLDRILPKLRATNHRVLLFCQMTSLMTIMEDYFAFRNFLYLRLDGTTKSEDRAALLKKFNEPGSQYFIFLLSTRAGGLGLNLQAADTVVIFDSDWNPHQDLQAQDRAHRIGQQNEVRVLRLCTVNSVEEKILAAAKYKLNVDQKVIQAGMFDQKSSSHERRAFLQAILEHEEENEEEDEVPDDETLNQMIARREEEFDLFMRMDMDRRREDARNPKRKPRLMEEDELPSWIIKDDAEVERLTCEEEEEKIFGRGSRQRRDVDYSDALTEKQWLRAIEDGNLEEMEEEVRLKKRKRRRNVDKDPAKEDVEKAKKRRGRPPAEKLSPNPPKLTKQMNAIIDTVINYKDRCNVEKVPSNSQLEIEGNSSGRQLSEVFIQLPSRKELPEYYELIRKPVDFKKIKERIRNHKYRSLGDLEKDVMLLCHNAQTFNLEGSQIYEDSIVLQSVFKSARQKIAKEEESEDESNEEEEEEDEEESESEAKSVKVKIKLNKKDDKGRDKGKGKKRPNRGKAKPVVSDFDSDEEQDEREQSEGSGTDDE
Measurement description: ATPase catalytic activity assay (ADP-Glo), BRM
Run conditions: BRM ATPase: IC50 (uM), 30 nM BRM, 400 μM ATP
Assay metric: IC50

The following molecules have reported results that may help.
Molecule	Assay result
C[C@@]1(C#N)COCc2ccc(C(=O)NCc3cc4nn(-c5ccccc5)cc4cn3)cc21 [Compound 524]	0.1 to 0.5 µM
C[C@@]1(F)COCc2ccc(C(=O)NCc3cc4nc(-c5ccc(=O)n(C6CC6)n5)ccc4cn3)cc21 [Compound 233]	0.1 to 0.5 µM
C[C@@]1(C#N)COCc2ccc(C(=O)NCc3cc4nc(-c5cn(C6COC6)nc5OC(F)F)ccc4cn3)cc21 [Compound 154]	< 0.1 µM
COc1cccc(-c2ccc3cnc(CNC(=O)c4ccc5c(c4)[C@](C)(C#N)COC5)cc3n2)n1 [Compound 492]	< 0.1 µM
COc1ccc(F)cc1-c1ccc2cnc(CNC(=O)c3ccc4c(c3)[C@](C)(C#N)COC4)cc2n1 [Compound 517]	< 0.1 µM
COc1cccc([C@H]2C[C@@H](c3ccnc(CNC(=O)c4ccc5c(c4)[C@](C)(C#N)COC5)c3)C2)c1 [Compound 71]	0.1 to 0.5 µM

Please state IC50 for every molecule in the list that follows.
1. C[C@@]1(C#N)COc2ccc(C(=O)NCc3cc4nc(-c5ccccc5)ccc4cn3)cc21 [Compound 99]
2. C[C@@]1(C#N)COCc2ccc(C(=O)NCc3cc4nc(-c5cncc(C(F)F)n5)ccc4cn3)cc21 [Compound 355]

Response:
1: > 1 µM; 2: 0.1 to 0.5 µM
